FYI, the data here is from paper PMC9118553.

experiment: In vivo bioconcentration experiment with a mixture of anionic surfactants, flow-through aquaria, 10 °C, pH 7.8
Design: species or system rainbow trout
settings: rainbow trout, whole fish homogenate, other: waterborne exposure in flow-through aquaria, 26 μg L^–1, pH 7.8, elimination phase, 128 h; individual fish
measured_endpoint: concentration at 128 h
For clarity, give the value followed by its unit.

// lookup concentration at 128 h for CCCCC(CC)COC(=O)CC(C(=O)OCC(CC)CCCC)S(=O)(=O)O (stereo not shown) [DOSS, bis(2-ethylhexyl)sulfosuccinate]
13.9 ng/g

====

Tested on: rainbow trout
experiment: In vivo bioconcentration experiment with a mixture of anionic surfactants, flow-through aquaria, 10 °C, pH 7.8;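 on Uptake rate constant kU: L kg-1 h-1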
settings: from measured concentrations in water; Bayesian estimate; 95% credible interval in brackets
Hi there, I'd appreciate the recorded Uptake rate constant kU for every entry that follows.

Observe how each entry below is paired with its result.
CCCCCCCCCCc1ccc(S(=O)(=O)O)cc1 [C10-1-LAS, 1-n-(p-sulfophenyl)decane]	0.77 (0.67–0.87) L kg^–1 ww h^–1
CCCCCCCCCCCCCOS(=O)(=O)O [C13SO4, tridecylsulfate]	1.62 (1.38–1.91) L kg^–1 ww h^–1
CCCCCCCCCCCCCS(=O)(=O)O [C13SO3, tridecylsulfonate]	0.25 (0.22–0.29) L kg^–1 ww h^–1
CCCCCCCCCCCOS(=O)(=O)O [C11SO4, undecylsulfate]	0.136 (0.113–0.163) L kg^–1 ww h^–1
CCCCC(CC)COC(=O)CC(C(=O)OCC(CC)CCCC)S(=O)(=O)O (centres unmarked) [DOSS, bis(2-ethylhexyl)sulfosuccinate]	0.090 (0.074–0.110) L kg^–1 ww h^–1
CCCCCCCCCCCCOCCOCCOCCOCCOS(=O)(=O)O [C12-EO4-SO4, dodecyltetraethoxysulfate]	0.090 (0.074–0.109) L kg^–1 ww h^–1
CCCCCCCCCCCCCCCCS(=O)(=O)O [C16SO3, hexadecylsulfonate]	6.3 (5.3–7.4) L kg^–1 ww h^–1

Would you kindly look at the next entry?
Fill in: Uptake rate constant kU of CCCCCCCCCCCCCCS(=O)(=O)O [C14SO3, tetradecylsulfonate] is ___
0.70 (0.61–0.80) L kg^–1 ww h^–1

====

Tested on: rainbow trout
experiment: In vivo bioconcentration experiment with a mixture of anionic surfactants, flow-through aquaria, 10 °C, pH 7.8
settings: from measured concentrations in water; Bayesian estimate; 95% credible interval in brackets
For each entry below, report its Elimination rate constant kT value.

Consider the following illustrative entries.
CCCCCCCCCCCCCCCCS(=O)(=O)O [C16SO3, hexadecylsulfonate]	0.0047 (0.0026–0.0062) h^–1
CCCCCCCCCCCOS(=O)(=O)O [C11SO4, undecylsulfate]	0.178 (0.151–0.206) h^–1

Could you report Elimination rate constant kT for every entry in the following list?
1. CCCCCCCCCCCCOCCOCCOCCOCCOS(=O)(=O)O [C12-EO4-SO4, dodecyltetraethoxysulfate]
2. CCCCCCCCCCc1ccc(S(=O)(=O)O)cc1
3. CCCCCCCCCCCCCCS(=O)(=O)O [C14SO3, tetradecylsulfonate]
4. CCCCCCCCCCCCCS(=O)(=O)O [C13SO3, tridecylsulfonate]
5. CCCCCCCCCCCCCOS(=O)(=O)O [C13SO4, tridecylsulfate]

1. 0.100 (0.083–0.120) h^–1
2. 0.047 (0.044–0.050) h^–1
3. 0.024 (0.022–0.026) h^–1
4. 0.057 (0.052–0.062) h^–1
5. 0.048 (0.043–0.053) h^–1
